Target: BCAT2 (Homo sapiens)
Sequence (O15382 28-392): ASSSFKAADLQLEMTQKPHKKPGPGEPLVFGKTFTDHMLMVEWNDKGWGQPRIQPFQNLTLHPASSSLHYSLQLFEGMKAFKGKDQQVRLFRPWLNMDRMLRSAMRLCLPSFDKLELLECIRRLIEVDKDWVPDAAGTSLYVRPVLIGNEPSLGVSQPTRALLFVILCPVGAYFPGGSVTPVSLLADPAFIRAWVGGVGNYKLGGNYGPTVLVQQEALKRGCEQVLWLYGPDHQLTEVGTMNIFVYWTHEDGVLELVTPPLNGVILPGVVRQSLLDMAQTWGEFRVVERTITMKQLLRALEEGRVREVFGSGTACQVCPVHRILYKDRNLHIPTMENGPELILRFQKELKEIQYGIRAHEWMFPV
Assay: BCAT2 in vitro cell inhibition using engineered A549 cells (KMV cell assay, 13C6-KMV by LC-MS/MS)
Format: cell-based
Design: The result was an engineered A549 cell line that expressed endogenous BCAT2; endogenous in cells; host or cells: A549 cells with MUT and BCAT1 knocked out by CRISPR/CAS9
Conditions: average where tested multiple times
Recorded IC50 by entry

Examples with their reported IC50 follow.
# molecule, IC50
measured = [
    ("CO[C@H]1C[C@H](NC(=O)c2ncc(Cl)s2)C[C@H](n2c(-c3ccccc3F)nc3cnc(-c4nc[nH]n4)cc32)C1 (single isomer, unassigned) [Example 218]", "≤ 100 nM"),
    ("N#Cc1cccc(-c2nc3cnc(-c4nc[nH]n4)cc3n2[C@@H]2CCC[C@H](NC(=O)c3ccc(Cl)s3)C2)c1F [Example 365]", "> 1000 nM"),
]

Then this molecule:
Please supply the value of reported IC50 for the item CC(=O)N1CC(NC(=O)c2ncc(C(F)F)s2)CC(n2c(-c3ccccc3F)nc3cnc(-n4ccnn4)cc32)C1 (stereo not shown) [Example 124]
100 to 500 nM

----------
Target: BCAT2 (Homo sapiens)
Experiment: BCAT2 in vitro enzyme inhibition assay (resazurin/diaphorase-coupled fluorescence)
Assay type: biochemical
Details: average where tested multiple times
readout: IC50

Examples with their reported IC50 follow.
# compound, IC50
rows = [
    ("O=C(NC1CCCC(n2c(-c3ccccc3F)nc3cnc(-n4nccn4)cc32)C1O)c1ncc(Cl)s1 (stereo not drawn) [Example 112]", "≤ 100 nM"),
    ("O=C(N[C@H]1CCC[C@@H](n2c(-c3ncccc3F)nc3cnc(-c4ncco4)cc32)C1)c1ccc(Br)s1 [Example 6]", "≤ 100 nM"),
    ("O=C(N[C@H]1CCC[C@@H](n2c(-c3ccccc3F)nc3cnc(C4CCCO4)cc32)C1)c1ncc(Cl)s1 (single isomer, unassigned) [Example 201]", "500 to 1000 nM"),
    ("O=C(N[C@H]1CCC[C@@H](n2c(-c3ccccc3C(=O)O)nc3cnc(-n4nccn4)cc32)C1)c1ncc(C(F)F)s1 [Example 99]", "≤ 100 nM"),
    ("CC(C)Cc1nc2cnc(-n3ncc(C(C)O)n3)cc2n1[C@@H]1CCC[C@H](NC(=O)c2ncc(Cl)s2)C1 (stereo partly drawn) [Example 350]", "≤ 100 nM"),
]

Then this compound:
With BCAT2 (Homo sapiens) as the test system, provide measured IC50 for this compound: CO[C@@H]1C[C@@H](NC(=O)c2ncc(Cl)s2)C[C@@H](n2c(CC(C)C)nc3cnc(-c4nc[nH]n4)cc32)C1 (stereo in doubt) [Example 414]
≤ 100 nM

----------
Recorded IC50 by entry
Biological target: hBCAT1 (Homo sapiens)
Sequence (P54687 whole entry): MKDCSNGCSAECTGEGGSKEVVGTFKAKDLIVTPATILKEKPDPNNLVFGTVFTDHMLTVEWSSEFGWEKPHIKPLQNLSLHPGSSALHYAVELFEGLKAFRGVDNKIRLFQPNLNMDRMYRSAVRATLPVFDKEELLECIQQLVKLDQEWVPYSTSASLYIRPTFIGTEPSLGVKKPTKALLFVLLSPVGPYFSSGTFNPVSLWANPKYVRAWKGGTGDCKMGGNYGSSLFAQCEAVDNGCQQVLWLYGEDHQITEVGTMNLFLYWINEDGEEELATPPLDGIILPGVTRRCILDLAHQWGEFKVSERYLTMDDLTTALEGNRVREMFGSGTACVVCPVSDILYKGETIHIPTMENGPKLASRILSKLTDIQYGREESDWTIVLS
Test: BCAT1 in vitro enzyme inhibition assay (resazurin/diaphorase-coupled fluorescence)
Details: average where tested multiple times

Examples with their reported IC50 follow.
# molecule, IC50
records = [
    ("O=C(N[C@H]1CCC[C@@H](n2c(-c3ncccc3F)nc3cnc(N4CCC4)cc32)C1)c1ccc(Br)s1", "> 5000 nM"),
    ("O=C(NC1CCCCC(n2c(-c3c(O)cccc3F)nc3cnc(-c4nc[nH]n4)cc32)C1O)c1ccc(Cl)s1 (stereo not drawn)", "< 500 nM"),
    ("O=C(N[C@H]1CCC[C@@H](n2c(-c3ncccc3F)nc3cnc(-n4cncn4)cc32)C1)c1ncc(C(F)F)s1", "1000 to 5000 nM"),
]

Please supply the value of reported IC50 for the item CO[C@@H]1C[C@@H](NC(=O)c2ncc(Cl)s2)C[C@@H](n2c(-c3ccccc3F)nc3cnc(-n4nccn4)cc32)C1 (stereo in doubt)
< 500 nM

Please supply the value of reported IC50 for the item Cc1cn[nH]c1-c1cc2c(cn1)nc(-c1ccccc1F)n2[C@@H]1CCC[C@H](NC(=O)c2ncc(Cl)s2)C1
< 500 nM
